- ASSAY: Confirmation screen for delayed death inhibitors of the malarial parasite plastid, 96 hour incubation; note: nearly all actives have a fitted effect of over 60% in size
- ASSAY CONDITIONS: P. falciparum luciferase growth in erythrocytes; series mostly up to 28.7 µM
About 1,400 (61%) of roughly 2,300 compounds were called active. Inconclusive results (about 29%) are left out. Calls come from the whole dose curve; as a rule, active = well fitted inhibition curve with a large enough effect; inconclusive = small, poorly fitted or top-dose-only effect, or effect the other way; inactive = no such curve, though single readings can be large or run the other way. So high a share suggests a set chosen from earlier hits. The list shows a part of the results.
Your reply should match one of these outcome classes. T for active, F for inactive

Field: outcome | Entry: `COc1ccc(C2(c3ccc(OC)cc3)NC(=O)N(CC(=O)Nc3ccc(C(N)=O)cc3)C2=O)cc1`
T

Field: outcome | Entry: Cc1cccc(N(Cc2ccccc2)C(=O)CN2C(=O)NC3(CCCCC3C)C2=O)c1 (stereo not drawn)
T

Field: outcome | Entry: CC(=O)N1CCc2cc(S(=O)(=O)N3CC(C)CC(C)C3)ccc21 (stereo not drawn)
T

Field: outcome | Entry: CC1C/C(=C/c2ccncc2)C(=O)/C(=C/c2ccncc2)C1 (stereo not drawn)
T

Field: outcome | Entry: `CCOC(=O)c1c(-c2ccc(C)cc2C)csc1NC(=O)CSc1nnnn1C`
T

Field: outcome | Entry: `C=CCNC(=O)c1onc(CSc2cccc3ccccc23)c1C(=O)O`
F

Field: outcome | Entry: `O=C(COC(=O)c1c2c(nc3ccccc13)CCN(Cc1ccccc1)C2)Nc1c(F)cccc1F`
T

Field: outcome | Entry: `CC(=O)/C=C/c1ccccc1Oc1c(F)c(F)nc(F)c1F`
T

Field: outcome | Entry: `CCC(=O)N1CCc2cc(S(=O)(=O)N3CCCCCC3)ccc21`
T

Field: outcome | Entry: `CCOC(=O)[C@H]1[C@H]2COc3cc(OC)ccc3[C@@H]2N2C(=O)N(c3ccc(Cl)cc3)C(=O)[C@@]12C`
F

Field: outcome | Entry: `O=C(Nc1ccccc1O)c1ccc([N+](=O)[O-])cc1`
T

Field: outcome | Entry: `Brc1c(CSc2nc3ccccc3s2)nc2ncccn12`
T

Field: outcome | Entry: `O=C(c1cc(COc2cccc(C(F)(F)F)c2)on1)N1CCC(Oc2cccnc2)CC1`
T

Field: outcome | Entry: `Cc1ccc(-c2cc(=O)c3ccc(F)cc3[nH]2)cc1`
T

Field: outcome | Entry: CC1(CCc2ccc3c(c2)OCO3)NCCc2c1[nH]c1ccccc21 (stereo not drawn)
T

Field: outcome | Entry: `Cc1ccc(C)c(-c2cc(C(=O)NNC(=S)NCC(C)C)c3ccccc3n2)c1`
T

Field: outcome | Entry: CCN1CCCC1CNC(=O)c1ccc2c(c1)N(Cc1ccccc1F)C(=O)c1ccccc1S2(=O)=O (stereo not drawn)
T

Field: outcome | Entry: `COc1cccc(NC(=O)CSc2ccc3nnc(CCNC(=O)c4ccccc4)n3n2)c1`
F

Field: outcome | Entry: `Cc1ccc(C(=O)NCCc2nnc3ccc(SCC(=O)NCc4ccc(F)cc4)nn23)cc1`
T

Field: outcome | Entry: `Cc1cc[n+]2cc(-c3cccc([N+](=O)[O-])c3)c(-c3cccc([N+](=O)[O-])c3)cc2c1`
T

Field: outcome | Entry: `COc1ccc2nc3oc(C(=O)NCc4cccs4)cc3cc2c1`
T

Field: outcome | Entry: `Cc1ccc(C)c(-c2cc(C(=O)Nc3nccs3)c3ccccc3n2)c1`
T

Field: outcome | Entry: `O=C1C(=O)c2ccccc2C(O)=C1c1cccc([N+](=O)[O-])c1`
T

Reference source: PubChem BioAssay AID504848
